# System: K-562
# ASSAY_COMMENT: SRB colorimetric assay of cell growth and viability, K-562
# Assay type: cell-based, human
# CONDITION_CONTEXT: 48 hours exposure, SRB; read-out: LC50 K-562
Where a SMILES comes first, the peptide text is derived from it. Bridges are numbered along the chain shown (N, C = ends). [ ]: non-standard residue; d: D form. The star is where a group is joined. d(aIle) = CC[C@H](C)[C@@H](N)C(=O)O; d(aThr) = C[C@@H](O)[C@@H](N)C(=O)O; Hexanoyl(5-Me) = CC(C)CCCC(=O)*; Orn = NCCC[C@H](N)C(=O)O; Dhb = C/C=C(\N)C(=O)O
READOUT: CC50 (µM)
Give the value in µM but do not write µM after it.

C/C=C1\NC(=O)[C@H](Cc2c[nH]c3ccccc23)NC(=O)[C@@H](C(C)C)NC(=O)[C@@H]([C@@H](C)CC)NC(=O)[C@H](NC(=O)[C@H](NC(=O)[C@H](CCCN)NC(=O)[C@H]2CCCN2C(=O)[C@H](NC(=O)[C@@H](NC(=O)[C@@H](NC(=O)[C@H](NC(=O)CCCC(C)C)C(C)C)[C@@H](C)O)C(C)C)C(C)C)[C@@H](C)CC)[C@@H](C)OC(=O)[C@H](C(C)C)NC1=O [Compound 68, [Trp^3]-KF] ({Hexanoyl(5-Me)}-[dV]TV[dV][dP][Orn][d(aIle)][d(aThr)][d(aIle)][dV]W[Dhb]V; ester 8-C) : 6.59

Indicate the recorded CC50 value for this molecule: C/C=C1\NC(=O)[C@H](Cc2ccccc2)N(C)C(=O)[C@@H](C(C)C)NC(=O)[C@@H]([C@@H](C)CC)NC(=O)[C@H](NC(=O)[C@H](NC(=O)[C@H](CCCN)NC(=O)[C@H]2CCCN2C(=O)[C@H](NC(=O)[C@@H](NC(=O)[C@@H](NC(=O)[C@H](NC(=O)CC[C@@H](C)CC)C(C)C)[C@@H](C)O)C(C)C)C(C)C)[C@@H](C)CC)[C@@H](C)OC(=O)[C@H](C(C)C)NC1=O [Compound 80, [NMePhe^3, (4S)-MeHex^14]-KF] 3.54

Indicate the recorded CC50 value for this molecule: C/C=C1\NC(=O)[C@H](Cc2ccccc2)NC(=O)[C@@H](C(C)C)NC(=O)[C@@H]([C@@H](C)CC)NC(=O)[C@H](NC(=O)[C@H](NC(=O)[C@H](CCCN)NC(=O)[C@H]2CCCN2C(=O)[C@H](NC(=O)[C@@H](NC(=O)[C@@H](NC(=O)[C@H](NC(=O)CC[C@@H](C)[C@H]2CC[C@H]3[C@@H]4CC[C@@H]5C[C@H](OC(=O)C(F)(F)F)CC[C@]5(C)[C@H]4CC[C@]23C)C(C)C)[C@@H](C)OC(=O)C(F)(F)F)C(C)C)C(C)C)[C@@H](C)CC)[C@@H](C)OC(=O)[C@H](C(C)C)NC1=O [Compound 97] 4.27

Indicate the recorded CC50 value for this molecule: C/C=C1\NC(=O)[C@H](Cc2ccccc2)NC(=O)[C@@H](C(C)C)NC(=O)[C@@H]([C@@H](C)CC)NC(=O)[C@H](NC(=O)[C@H](NC(=O)[C@H](CCCNC(=O)C(F)(F)F)NC(=O)[C@H]2CCCN2C(=O)[C@H](NC(=O)[C@@H](NC(=O)[C@@H](NC(=O)[C@H](NC(=O)CC[C@@H](C)CC)C(C)C)[C@@H](C)OC(=O)C(F)(F)F)C(C)C)C(C)C)[C@@H](C)CC)[C@@H](C)OC(=O)[C@H](C(C)C)NC1=O [Compound 95] 5.99

Indicate the recorded CC50 value for this molecule: C/C=C1\NC(=O)[C@H](Cc2ccccc2)NC(=O)[C@@H](C(C)C)NC(=O)[C@@H]([C@@H](C)CC)NC(=O)[C@H](NC(=O)[C@H](NC(=O)[C@H](CCCC[N+](C)(C)C)NC(=O)[C@H]2CCCN2C(=O)[C@H](NC(=O)[C@@H](NC(=O)[C@@H](NC(=O)[C@H](NC(=O)CC[C@@H](C)CC)C(C)C)[C@@H](C)O)C(C)C)C(C)C)[C@@H](C)CC)[C@@H](C)OC(=O)[C@H](C(C)C)NC1=O [Compound 93, [N^ε(Me)3-Lys^8, (4S)-MeHex^14]-KF] 4.94

// data source = patent US20070117743A1
